Just for reference, patent US20100061928A1 is where these values come from.

Experiment: Elimination of the molecules: cumulative urinary and faecal excretion 0-72 hours
Format: in vivo, mouse
Conditions: cumulative excretion 0-72 hours, faeces, mice in metabolic cages
Structures can show the parent of a compound that is named as a salt.
Property: Faecal elimination 0-72 hours (Faeces); scope: individual compounds
Could you give me the number in %? Just the number is fine.

{"compound": "CCN(CC)CCNC(=O)c1cc2c(I)cccc2cn1 [compound 39, dihydrochloride]", "observed": 21.2}

Record request: Faecal elimination 0-72 hours (Faeces) value, item CCN(CC)CCNC(=O)c1cccc2cc3cc(I)ccc3nc12 [compound 111, dihydrochloride]
23.2

How about this compound: CCN(CC)CCNC(=O)c1ccc(I)nc1 [compound 7, dihydrochloride]
5.3

How about this compound: CCN(CC)CCNC(=O)c1ccc(I)cc1 [BZA, N-(2-diethylaminoethyl)-4-iodobenzamide, reference compound]
4.8
